- target.or.test.system: TEL-ALK-F1174L-BaF3 (Homo sapiens, UniProt Q9UM73, F1174L, cells depend on it)
- Construct: fused on or other part: TEL (ETV6) N-terminal oligomerising part fused before the ALK intracellular/kinase part; P41212 (Transcription factor ETV6)
- Sequence (Q9UM73 whole entry F1174L, the tested form may be a part): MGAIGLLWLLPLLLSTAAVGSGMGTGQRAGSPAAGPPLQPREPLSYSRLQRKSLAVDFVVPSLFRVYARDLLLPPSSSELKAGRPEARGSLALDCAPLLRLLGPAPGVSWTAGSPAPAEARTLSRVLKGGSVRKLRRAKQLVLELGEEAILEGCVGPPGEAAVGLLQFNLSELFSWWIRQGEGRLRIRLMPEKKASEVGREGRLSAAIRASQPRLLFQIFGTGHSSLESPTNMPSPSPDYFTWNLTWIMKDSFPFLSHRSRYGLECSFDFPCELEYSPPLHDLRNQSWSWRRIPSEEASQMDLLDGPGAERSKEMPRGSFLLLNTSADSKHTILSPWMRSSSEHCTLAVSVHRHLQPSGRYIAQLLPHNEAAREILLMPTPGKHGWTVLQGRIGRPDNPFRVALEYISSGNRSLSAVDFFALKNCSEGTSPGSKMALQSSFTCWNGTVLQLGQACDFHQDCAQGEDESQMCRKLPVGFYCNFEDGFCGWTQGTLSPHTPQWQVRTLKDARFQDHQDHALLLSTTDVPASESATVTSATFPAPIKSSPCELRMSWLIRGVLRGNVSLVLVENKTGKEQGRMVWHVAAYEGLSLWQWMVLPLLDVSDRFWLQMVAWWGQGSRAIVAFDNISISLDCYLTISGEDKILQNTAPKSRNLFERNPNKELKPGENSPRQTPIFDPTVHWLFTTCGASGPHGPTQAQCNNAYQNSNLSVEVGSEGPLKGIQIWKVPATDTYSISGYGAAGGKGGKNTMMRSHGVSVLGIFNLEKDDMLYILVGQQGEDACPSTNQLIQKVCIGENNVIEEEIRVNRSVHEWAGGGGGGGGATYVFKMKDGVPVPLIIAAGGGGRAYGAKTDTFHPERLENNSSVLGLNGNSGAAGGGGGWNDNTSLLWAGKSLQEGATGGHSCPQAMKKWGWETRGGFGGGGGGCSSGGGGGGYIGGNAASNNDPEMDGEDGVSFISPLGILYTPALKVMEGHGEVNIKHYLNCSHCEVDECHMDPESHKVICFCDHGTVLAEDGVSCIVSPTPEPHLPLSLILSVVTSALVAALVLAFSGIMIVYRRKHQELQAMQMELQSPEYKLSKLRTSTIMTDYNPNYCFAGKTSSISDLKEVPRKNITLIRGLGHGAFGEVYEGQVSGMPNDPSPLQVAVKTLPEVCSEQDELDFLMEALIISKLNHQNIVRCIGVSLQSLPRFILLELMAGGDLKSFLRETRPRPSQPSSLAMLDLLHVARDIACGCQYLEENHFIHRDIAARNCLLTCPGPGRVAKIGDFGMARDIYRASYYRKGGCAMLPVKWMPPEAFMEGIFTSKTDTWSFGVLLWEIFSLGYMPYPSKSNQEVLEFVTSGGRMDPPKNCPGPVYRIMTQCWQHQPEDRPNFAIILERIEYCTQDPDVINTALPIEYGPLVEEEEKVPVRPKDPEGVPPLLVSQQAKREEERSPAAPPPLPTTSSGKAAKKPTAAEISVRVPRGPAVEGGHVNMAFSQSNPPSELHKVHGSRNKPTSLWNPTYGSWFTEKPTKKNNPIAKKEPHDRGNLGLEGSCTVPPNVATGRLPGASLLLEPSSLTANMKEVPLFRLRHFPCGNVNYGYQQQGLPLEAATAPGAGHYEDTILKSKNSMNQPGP
- experimental.protocol: Cell proliferation experiment (Cell-Titer GLO), TEL-ALK-F1174L-BaF3
- Format: cell-based
- experimental.setup: 72 h, read-out: IC50 TEL-ALK F1174L-BaF3
measure.name: GI50 (nM)
Output spec: scalar in nM, unitless text.

Here's what some known entries look like.
molecule	meas.value
Cc1cc(Nc2ncc(C(F)(F)F)c(Nc3cn(C)nc3S(=O)(=O)C(C)C)n2)c2c(c1C1CCN(CCO)CC1)C[C@@H](C)O2	80.1
Cc1cc(Nc2ncc(Cl)c(Nc3ccccc3S(=O)(=O)C(C)C)n2)c(OC(C)C)cc1C1CCNCC1 [Ceritinib, reference compound]	36.1

Item CC(C)S(=O)(=O)c1nn(C)cc1Nc1nc(Nc2cc(F)c(C3CCN(C)CC3)c3c2O[C@H](C)C3)ncc1C(F)(F)F has what recorded GI50? 11.4

Item Cc1cc(Nc2ncc(Cl)c(Nc3cn(C)nc3S(=O)(=O)C(C)C)n2)c2c(c1C1CCN(C(C)C)CC1)C[C@@H](C)O2 has what recorded GI50? 11.2

Item Cc1cc(Nc2ncc(Cl)c(Nc3cn(C4CC4)nc3S(=O)(=O)C(C)C)n2)c2c(c1C1CCN(C)CC1)C[C@@H](C)O2 has what recorded GI50? 26.1

Item Cc1cc(Nc2ncc(Cl)c(Nc3cn(C)nc3S(=O)(=O)CC(C)C)n2)c2c(c1C1CCNCC1)C[C@@H](C)O2 has what recorded GI50? 58.7

Item Cc1cc(Nc2ncc(Cl)c(Nc3cn(C)nc3S(=O)(=O)C(C)C)n2)c2c(c1C1CCN(CCO)CC1)C[C@@H](C)O2 has what recorded GI50? 10.7

Item CC(=O)N1CCC(c2c(C)cc(Nc3ncc(Cl)c(Nc4cn(C)nc4S(=O)(=O)C(C)C)n3)c3c2C[C@@H](C)O3)CC1 has what recorded GI50? 11.6

----------
# reported pIC50; entries follow
- System: NCI-H3122
- experimental.protocol: Cell proliferation experiment (Cell-Titer GLO), NCI-H3122
- Format: cell-based
- experimental.setup: Homo sapiens, 72 h
Keep it numeric: pIC50 is minus log10 of the concentration in mol/L.

structure.string	pIC50
Cc1cc(Nc2ncc(C(F)(F)F)c(Nc3cn(C)nc3S(=O)(=O)C(C)C)n2)c2c(c1C1CCN(CCO)CC1)C[C@@H](C)O2	7.97
CCn1cc(Nc2nc(Nc3cc(C)c(C4CCN(C)CC4)c4c3O[C@H](C)C4)ncc2Cl)c(S(=O)(=O)C(C)C)n1	7.94
CCn1cc(Nc2nc(Nc3cc(C)c(C4CCNCC4)c4c3O[C@H](C)C4)ncc2Cl)c(S(=O)(=O)C(C)C)n1	7.93
Cc1cc(Nc2ncc(Cl)c(Nc3cn(C4CC4)nc3S(=O)(=O)C(C)C)n2)c2c(c1C1CCNCC1)C[C@@H](C)O2	7.39
Cc1cc(Nc2ncc(Cl)c(Nc3cn(C)nc3S(=O)(=O)C(C)C)n2)c2c(c1C1CCN(C(C)C)CC1)C[C@@H](C)O2	7.97
Cc1cc(Nc2ncc(Cl)c(Nc3cn(C(C)C)nc3S(=O)(=O)C(C)C)n2)c2c(c1C1CCN(C)CC1)C[C@@H](C)O2	7.39
Cc1cc(Nc2ncc(Cl)c(Nc3cn(C)nc3S(=O)(=O)C(C)C)n2)c2c(c1C1CCN(CCO)CC1)C[C@@H](C)O2	7.97

Item Cc1cc(Nc2ncc(Cl)c(Nc3cn(C)nc3S(=O)(=O)C(C)C)n2)c2c(c1C1CCN(C3CCNCC3)CC1)C[C@@H](C)O2 has what recorded pIC50? 7.47
